All figures here come from ChEMBL document CHEMBL1201862.

tested on: SNB-78; test: NCI tumour cell line growth inhibition, 48 h
Active and inactive are the calls of the source. Cut-off read from the data, not from the text of the source: active = GI50 up to about 1.1 µM and inactive = higher.
Provide the recorded GI50 for the entries that follow.

| COMPOUND | GI50 |
| --- | --- |
| COc1cccc(C2N3CCCCC3[C@@H]3c4[nH]c5ccccc5c4CCN23)c1OC (stereo not given in full) | 15.7 µM (inactive) |
| C/C(CC(=O)Nc1ccc(C)c(C)c1)=N\NC(N)=S | > 100 µM (inactive) |
| COc1c(Sc2ccccc2)cc(Sc2ccccc2)c2cccnc12 | 34 µM (inactive) |
| O[C@H]1[C@H]2[C@H](O)CCCN2C[C@H]1O [TRIDOLGOSIR] | > 100 µM (inactive) |
| Cc1cc(O)nc(NNC(C#N)c2ccc(N(C)C)cc2)n1 (stereo not given) | > 100 µM (inactive) |

Would you mind listing GI50 for each of the following compounds?
1. [N-]=[N+]=NCC(O)Cn1cnc2c(NC(=O)c3ccccc3)ncnc21 (stereo not given)
2. Cc1c2nc3ccccc3sc-2cc(=O)c1C
3. O=C(CC1(O)C(=O)Nc2ccc([N+](=O)[O-])cc21)c1ccncc1 (stereo not given)

**A:**
1: > 100 µM (inactive); 2: > 24.3 µM (inactive); 3: 47.2 µM (inactive)

Would you mind listing GI50 for each of the following compounds?
1. CN(CCO)c1nc2c(c(=O)[nH]1)CNCC2
2. Nc1ccc(C(=O)/C=C/c2ccccc2O)cc1
3. CCNC(=S)NNC(=O)c1nsc2ccccc12
4. Nc1ccc(C(=O)NN2C(=O)C(Cl)C2c2cccc(O)c2)cc1 (stereo not given)
5. CN(C)CCOc1cc2c(c3ccccc13)-c1ccccc1C2O (stereo not given)
6. Cc1cccc(C)c1NC(=O)CCCC(=O)C1CC(=O)CCC1=O (stereo not given)

**A:**
["> 100 µM (inactive)", "> 100 µM (inactive)", "> 100 µM (inactive)", "17.5 µM (inactive)", "15.9 µM (inactive)", "> 100 µM (inactive)"]

Would you mind listing GI50 for each of the following compounds?
1. Cc1ccccc1-n1c(=O)sc2c(=O)n(-c3ccccc3)c(=S)[nH]c21
2. O=C(NOC(=O)c1ccc([N+](=O)[O-])cc1)c1ccc(Cl)cc1
3. Cn1c(=O)c(C(=O)NC23CC4CC(CC(C4)C2)C3)c(O)c2ccccc21
4. Cc1[nH]c2ccccc2c1C1Cc2ccccc2N1C(=O)/C=C/C=C/c1ccccc1 (stereo not given)
5. CCCCN(CCCC)CC(C(=O)Nc1ccc([N+](=O)[O-])cc1[N+](=O)[O-])/C(C)=N\NC(=O)C[N+](C)(C)C (stereo not given)
6. CCCCNS(=O)(=O)c1ccc(-c2ccc3c(c2)-c2ccc(S(=O)(=O)NCCCC)cc2S3(=O)=O)cc1

**A:**
1. > 100 µM (inactive)
2. 16.6 µM (inactive)
3. 43.3 µM (inactive)
4. > 100 µM (inactive)
5. 97.7 µM (inactive)
6. 12.4 µM (inactive)

---

Record type: GI50 measurement. Applies to: HCT-15

Look over these answered cases.
| COMPOUND | GI50 |
| --- | --- |
| NC(=O)C(NC=O)c1ccccc1 (stereo unspecified) | > 100 µM |
| O=C1/C(=C/c2cccc([N+](=O)[O-])c2)N=C(c2ccccc2)N1c1nc2c(Cl)cc(Cl)cc2s1 | 29.3 µM |
| CC(C)(C)/C(=N\Nc1nc2ccccc2[nH]1)c1ccccn1 | 43.1 µM |
| CN[C@@H](C)[C@@H](N)c1ccccc1 | > 100 µM |
| COC(=O)C1=COc2c(n(C)c3ccccc23)-c2ccccc21 | > 100 µM |

Then there is this compound:
Field GI50 (system: HCT-15) for entry COc1ccc(CC2NCCc3cc(OC)c(OC)cc32)cc1 (stereo unspecified) = > 100 µM
